System: MycN Protein (Homo sapiens)
Construct: endogenous in cells; host or cells: HL-60 or SKNBE2
Sequence (P04198 whole entry): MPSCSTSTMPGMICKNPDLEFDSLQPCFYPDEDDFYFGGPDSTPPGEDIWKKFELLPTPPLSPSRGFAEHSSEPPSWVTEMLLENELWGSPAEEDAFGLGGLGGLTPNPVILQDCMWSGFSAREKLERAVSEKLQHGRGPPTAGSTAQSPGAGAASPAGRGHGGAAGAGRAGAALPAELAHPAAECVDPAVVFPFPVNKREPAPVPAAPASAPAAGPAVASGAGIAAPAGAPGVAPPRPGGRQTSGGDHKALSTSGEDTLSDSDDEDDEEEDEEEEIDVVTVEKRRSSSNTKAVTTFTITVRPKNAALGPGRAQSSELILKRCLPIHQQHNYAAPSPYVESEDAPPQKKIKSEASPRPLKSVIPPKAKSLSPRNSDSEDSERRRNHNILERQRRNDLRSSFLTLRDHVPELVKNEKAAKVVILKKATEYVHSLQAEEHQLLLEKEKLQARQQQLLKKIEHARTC
Experimental Details: Degradation of MycN protein, Western blot band density in cells
Type: cell-based
Condition Set: HL-60 or SKNBE2 cells; 6 uL of compound (1 mM) added to 3 mL cells; 6 hours; Western blot band density (ImageJ)

[
  {
    "Compound": "CN(c1nccc(Nc2cc(C3CCC(F)(F)C3)[nH]n2)n1)[C@H]1CC[C@H](NC(=O)NC2Cc3ccc(C#N)cc3C2)CC1 (stereo partly shown)",
    "Dmax at 2 µM": "50 to 79%"
  },
  {
    "Compound": "N#Cc1ccc2c(c1)CC(NC(=O)N[C@H]1CC[C@H](Nc3nccc(Nc4cc(C5CC5)[nH]n4)n3)CC1)C2 (stereo partly shown)",
    "Dmax at 2 µM": "20 to 49%"
  },
  {
    "Compound": "N#Cc1ccc2c(c1)CC(NC(=O)N[C@H]1CC[C@H](Nc3nccc(Nc4cc(C5CCOC5)[nH]n4)n3)CC1)C2 (stereo partly shown)",
    "Dmax at 2 µM": "20 to 49%"
  },
  {
    "Compound": "O=C(Nc1cccc(C(F)(F)F)c1)N[C@H]1CC[C@H](Nc2nccc(Nc3cc(C4CCCC4)[nH]n3)n2)CC1",
    "Dmax at 2 µM": "50 to 79%"
  },
  {
    "Compound": "CN(C(=O)NC1Cc2ccc(C#N)cc2C1)[C@H]1CC[C@H](N(C)c2nccc(Nc3cc(C4CCCC4)[nH]n3)n2)CC1 (stereo partly shown)",
    "Dmax at 2 µM": "50 to 79%"
  },
  {
    "Compound": "O=C(NC1CC2CCC(C1)N2C1CC1)N[C@H]1CC[C@H](Nc2nccc(Nc3cc(C4CCCC4)[nH]n3)n2)CC1 (stereo partly shown)",
    "Dmax at 2 µM": "< 20%"
  },
  {
    "Compound": "O=C(NC1CCC(N2CCOC2=O)CC1)N[C@H]1CC[C@H](Nc2nccc(Nc3cc(C4CCCC4)[nH]n3)n2)CC1 (stereo partly shown)",
    "Dmax at 2 µM": "< 20%"
  }
]

---

System: MycC Protein (Homo sapiens)
Construct: endogenous in cells; host or cells: HL-60 or SKNBE2
Sequence (P01106 whole entry): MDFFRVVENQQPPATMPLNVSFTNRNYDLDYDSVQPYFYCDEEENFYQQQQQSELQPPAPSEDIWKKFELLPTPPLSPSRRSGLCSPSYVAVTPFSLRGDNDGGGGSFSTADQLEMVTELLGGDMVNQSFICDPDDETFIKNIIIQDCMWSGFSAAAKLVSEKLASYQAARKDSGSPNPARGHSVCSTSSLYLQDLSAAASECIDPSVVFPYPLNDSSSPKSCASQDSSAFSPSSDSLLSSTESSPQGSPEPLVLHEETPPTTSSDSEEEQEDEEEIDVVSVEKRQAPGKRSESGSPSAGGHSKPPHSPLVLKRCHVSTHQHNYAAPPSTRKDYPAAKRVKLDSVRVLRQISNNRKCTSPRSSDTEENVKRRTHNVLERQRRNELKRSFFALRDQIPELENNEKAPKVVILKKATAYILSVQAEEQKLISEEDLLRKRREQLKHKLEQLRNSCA
Experimental Details: Degradation of MycC protein, Western blot band density in cells
Assay type: cell-based
Condition Set: HL-60 or SKNBE2 cells; 6 uL of compound (1 mM) added to 3 mL cells; 6 hours; Western blot band density (ImageJ)
The compounds listed here are annotated with their Dmax at 2 µM.

[
  {
    "Compound": "O=C(NC1CCN(Cc2ccccn2)CC1)N[C@H]1CC[C@H](Nc2nccc(Nc3cc(C4CCOC4)[nH]n3)n2)CC1 (stereo partly drawn) [Compound 74]",
    "System": "MycC Protein (Homo sapiens)",
    "Dmax at 2 µM": "< 20%"
  },
  {
    "Compound": "CC(=O)N1CCC(NC(=O)N[C@H]2CC[C@H](Nc3nccc(Nc4cc(C5CCCC5)[nH]n4)n3)CC2)CC1 [Compound 2]",
    "System": "MycC Protein (Homo sapiens)",
    "Dmax at 2 µM": "< 20%"
  },
  {
    "Compound": "COCCNC(=O)NC1CCC(Nc2nccc(Nc3cc(C4CCCC4)[nH]n3)n2)CC1 (stereo not drawn) [Compound 43]",
    "System": "MycC Protein (Homo sapiens)",
    "Dmax at 2 µM": "20 to 49%"
  },
  {
    "Compound": "O=C(N[C@@H]1CCC[C@@H](C(F)(F)F)C1)N[C@H]1CC[C@H](Nc2nccc(Nc3cc(C4CCCC4)[nH]n3)n2)CC1 [Compound 119]",
    "System": "MycC Protein (Homo sapiens)",
    "Dmax at 2 µM": "< 20%"
  },
  {
    "Compound": "N#Cc1ccc2c(c1)CC(NC(=O)N[C@H]1CC[C@H](Nc3nccc(Nc4cc(C5CCOC5)[nH]n4)n3)CC1)C2 (stereo partly drawn) [Compound 5]",
    "System": "MycC Protein (Homo sapiens)",
    "Dmax at 2 µM": "< 20%"
  },
  {
    "Compound": "O=C(NC1CCCC(N2CCCC2=O)C1)N[C@H]1CC[C@H](Nc2nccc(Nc3cc(C4CCCC4)[nH]n3)n2)CC1 (mixture of isomers) [Compound 27]",
    "System": "MycC Protein (Homo sapiens)",
    "Dmax at 2 µM": "< 20%"
  },
  {
    "Compound": "CS(=O)(=O)[C@H]1C[C@H](NC(=O)N[C@H]2CC[C@H](Nc3nccc(Nc4cc(C5CCCC5)[nH]n4)n3)CC2)C1 [Compound 57]",
    "System": "MycC Protein (Homo sapiens)",
    "Dmax at 2 µM": "50 to 79%"
  },
  {
    "Compound": "O=C(NC1CCN(Cc2ccccn2)CC1)N[C@H]1CC[C@H](Nc2nccc(Nc3cc(C4CCCC4)[nH]n3)n2)CC1 [Compound 72]",
    "System": "MycC Protein (Homo sapiens)",
    "Dmax at 2 µM": "20 to 49%"
  },
  {
    "Compound": "CN(c1nccc(Nc2cc(C3CC4(CC4)C3)[nH]n2)n1)[C@H]1CC[C@H](NC(=O)NC2Cc3ccc(C#N)cc3C2)CC1 (stereo partly drawn) [Compound 148]",
    "System": "MycC Protein (Homo sapiens)",
    "Dmax at 2 µM": "50 to 79%"
  },
  {
    "Compound": "CN1CC(NCc2ccc3c(c2)CC(NC(=O)N[C@H]2CC[C@H](Nc4nccc(Nc5cc(C6CCCC6)[nH]n5)n4)CC2)C3)C1 (stereo partly drawn) [Compound 107]",
    "System": "MycC Protein (Homo sapiens)",
    "Dmax at 2 µM": "50 to 79%"
  },
  {
    "Compound": "O=C(NC1CCN(CCO)CC1)N[C@H]1CC[C@H](Nc2nccc(Nc3cc(C4CCCC4)[nH]n3)n2)CC1 [Compound 70]",
    "System": "MycC Protein (Homo sapiens)",
    "Dmax at 2 µM": "20 to 49%"
  },
  {
    "Compound": "O=C(N[C@H]1CC[C@H](Nc2nccc(Nc3cc(C4CCCC4)[nH]n3)n2)CC1)N[C@H]1C[C@H](c2ccccc2)C1 [Compound 52]",
    "System": "MycC Protein (Homo sapiens)",
    "Dmax at 2 µM": "80 to 100%"
  },
  {
    "Compound": "O=C(NC1CCC(Nc2nccc(Nc3cc(C4CCCC4)[nH]n3)n2)CC1)NC1CCN(C2CC2)CC1 (stereo not drawn) [Compound 63]",
    "System": "MycC Protein (Homo sapiens)",
    "Dmax at 2 µM": "20 to 49%"
  },
  {
    "Compound": "O=C(NC1Cc2ccncc2C1)N[C@H]1CC[C@H](Nc2nccc(Nc3cc(C4CCCC4)[nH]n3)n2)CC1 (stereo partly drawn) [Compound 101]",
    "System": "MycC Protein (Homo sapiens)",
    "Dmax at 2 µM": "80 to 100%"
  },
  {
    "Compound": "O=C(NC1CC(c2ccccc2)C1)N[C@H]1CC[C@H](Nc2nccc(Nc3cc(C4CCOC4)[nH]n3)n2)CC1 (stereo partly drawn) [Compound 102]",
    "System": "MycC Protein (Homo sapiens)",
    "Dmax at 2 µM": "< 20%"
  },
  {
    "Compound": "CS(=O)(=O)[C@H]1CCCC(NC(=O)N[C@H]2CC[C@H](Nc3nccc(Nc4cc(C5CCCC5)[nH]n4)n3)CC2)C1 (stereo partly drawn) [Compound 26]",
    "System": "MycC Protein (Homo sapiens)",
    "Dmax at 2 µM": "< 20%"
  },
  {
    "Compound": "N#Cc1cccc([C@H]2C[C@H](NC(=O)N[C@H]3CC[C@H](Nc4nccc(Nc5cc(C6CCOC6)[nH]n5)n4)CC3)C2)c1 (stereo partly drawn) [Compound 53]",
    "System": "MycC Protein (Homo sapiens)",
    "Dmax at 2 µM": "< 20%"
  },
  {
    "Compound": "CS(=O)(=O)c1ccc2c(c1)CC(NC(=O)N[C@H]1CC[C@H](Nc3nccc(Nc4cc(C5CCCC5)[nH]n4)n3)CC1)C2 (stereo partly drawn) [Compound 3]",
    "System": "MycC Protein (Homo sapiens)",
    "Dmax at 2 µM": "50 to 79%"
  },
  {
    "Compound": "N#Cc1ccc2c(c1)CC(NC(=O)N[C@H]1CC[C@H](Nc3nccc(Nc4cc(C5CC5)[nH]n4)n3)CC1)C2 (stereo partly drawn) [Compound 21]",
    "System": "MycC Protein (Homo sapiens)",
    "Dmax at 2 µM": "< 20%"
  },
  {
    "Compound": "Cc1cc(Nc2ccnc(N[C@H]3CC[C@H](NC(=O)NC4Cc5ccc(S(C)(=O)=O)cc5C4)CC3)n2)n[nH]1 (stereo partly drawn) [Compound 115]",
    "System": "MycC Protein (Homo sapiens)",
    "Dmax at 2 µM": "< 20%"
  },
  {
    "Compound": "Cc1cc(Nc2ccnc(N[C@H]3CC[C@H](NC(=O)N[C@@H]4CCC[C@@H](C(F)(F)F)C4)CC3)n2)n[nH]1 [Compound 120]",
    "System": "MycC Protein (Homo sapiens)",
    "Dmax at 2 µM": "< 20%"
  },
  {
    "Compound": "C/N=C(\\Nc1cccc(C(F)(F)F)c1)N[C@H]1CC[C@H](Nc2nccc(Nc3cc(C4CCCC4)[nH]n3)n2)CC1 [Compound 83]",
    "System": "MycC Protein (Homo sapiens)",
    "Dmax at 2 µM": "< 20%"
  },
  {
    "Compound": "O=C(NC1CCC(Nc2nccc(Nc3cc(C4CCCC4)[nH]n3)n2)CC1)NC1CC2(C1)CN(C1CC1)C2 (stereo not drawn) [Compound 77]",
    "System": "MycC Protein (Homo sapiens)",
    "Dmax at 2 µM": "20 to 49%"
  },
  {
    "Compound": "CN(c1nccc(Nc2cc(C3CC3)[nH]n2)n1)[C@H]1CC[C@H](NC(=O)NC2Cc3ccccc3C2)CC1 [Compound 150]",
    "System": "MycC Protein (Homo sapiens)",
    "Dmax at 2 µM": "80 to 100%"
  },
  {
    "Compound": "CC(NC(=O)N[C@H]1CC[C@H](Nc2nccc(Nc3cc(C4CCCC4)[nH]n3)n2)CC1)c1ccccn1 (stereo partly drawn) [Compound 4]",
    "System": "MycC Protein (Homo sapiens)",
    "Dmax at 2 µM": "80 to 100%"
  },
  {
    "Compound": "CCc1cc(Nc2ccnc(N[C@H]3CC[C@H](NC(=O)NC4Cc5ccc(C#N)cc5C4)CC3)n2)n[nH]1 (stereo partly drawn) [Compound 8]",
    "System": "MycC Protein (Homo sapiens)",
    "Dmax at 2 µM": "20 to 49%"
  },
  {
    "Compound": "CN(c1nccc(Nc2cc(C3CC(F)(F)C3)[nH]n2)n1)[C@H]1CC[C@H](NC(=O)NC2Cc3ccc(C#N)cc3C2)CC1 (stereo partly drawn) [Compound 145]",
    "System": "MycC Protein (Homo sapiens)",
    "Dmax at 2 µM": "50 to 79%"
  }
]

Source: patent US20210369710A1
